test: inhibitors of TNFa-induced NFkB p65 translocation, primary screen, imaging, HUVEC, MLSMR starter and 10KST1 sets (AID 438); conditions: HUVEC TNFa-induced p65 nuclear translocation; measured here: nuclei count (cytotoxicity indicator), at 2.08 µM;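 further: compound added about 3h40 before a 20 min TNFalpha stimulation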
Kind request: treat 500 as inclusive, so cell count at 500 or higher is y, anything lower is n.

compound	class
COc1ccc(Cl)cc1C(=O)NCCc1ccc(S(=O)(=O)NC(=O)NC2CCCCC2)cc1	y
CCOC(=O)COc1ccc(Oc2nc(C)cc(OC)n2)nn1	n
OCCNC1=NCCN1	y
O=C(CSc1nnc(-c2ccco2)c(-c2ccco2)n1)Nc1ccccc1	y
N#Cc1c(-c2ccco2)cc(C2CC2)nc1N	y

## Task cell count >= 500 for `CN(C)CCCOC(=O)C1c2ccccc2Oc2ccccc21` ?
## Result y

## Task Would you mind doing `COc1ccc(C2=Nn3c(nnc3-c3ccccn3)SC2)cc1OC` as well?
## Result y

## Task Would you mind doing `O=C(Nc1ccccc1C(=O)NCCCn1ccnc1)c1ccccc1` as well?
## Result n

## Task Would you mind doing `C=CCc1c(C)c(C#N)c2nc3ccccc3n2c1N1CCN(C)CC1` as well?
## Result y

## Task Would you mind doing CS(=O)(=O)CCC(C(=O)n1nnc2ccccc21)N1C(=O)c2ccccc2C1=O (centres undefined) as well?
## Result n

## Task Would you mind doing COc1ccc(C(=O)C(CN2CCCC2)c2ccccc2)cc1 (centres undefined) as well?
## Result y

## Task Would you mind doing Cc1cc(NCC2CCCO2)n2c(nc3ccccc32)c1C#N (centres undefined) as well?
## Result n

## Task Would you mind doing C=C(C)C1Cc2c(C)nn(-c3nc(C)cc(C)n3)c2C1 (centres undefined) as well?
## Result n
